Tested on: 624824-186-R-J2-PDC multicell spheroids, viability;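 further: spheroids exposed to agents for 7 days before viability read; 100% = DMSO vehicle treated spheroids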
Assay: Anticancer human tumor 624824-186-R-J2-PDC patient-derived colon adenocarcinoma cell line growth inhibition [PI3K]
Conditions: second compound 1 µM; first compound 0.000316 µM; stronger effect = lower value
readout_name: viability, T/C

>  <molecule>
CC(C)n1nc(-c2ccc3oc(N)nc3c2)c2c(N)ncnc21 + CC(Nc1ccc2c(c1)OCCn1cc(N3C(=O)OCC3C(F)F)nc1-2)C(N)=O

>  <value_measured>
97%

$$$$
>  <molecule>
CC(=O)c1c(C)c2cnc(Nc3ccc(N4CCNCC4)cn3)nc2n(C2CCCC2)c1=O + CC(Nc1ccc2c(c1)OCCn1cc(N3C(=O)OCC3C(F)F)nc1-2)C(N)=O

>  <value_measured>
90%

$$$$
>  <molecule>
Cn1ncnc1[C@H]1c2n[nH]c(=O)c3cc(F)cc(c23)N[C@@H]1c1ccc(F)cc1 + CC(Nc1ccc2c(c1)OCCn1cc(N3C(=O)OCC3C(F)F)nc1-2)C(N)=O

>  <value_measured>
91.6%

$$$$
